# system-name: p110γ (Homo sapiens (Human))
# Sequence (P48736 whole entry): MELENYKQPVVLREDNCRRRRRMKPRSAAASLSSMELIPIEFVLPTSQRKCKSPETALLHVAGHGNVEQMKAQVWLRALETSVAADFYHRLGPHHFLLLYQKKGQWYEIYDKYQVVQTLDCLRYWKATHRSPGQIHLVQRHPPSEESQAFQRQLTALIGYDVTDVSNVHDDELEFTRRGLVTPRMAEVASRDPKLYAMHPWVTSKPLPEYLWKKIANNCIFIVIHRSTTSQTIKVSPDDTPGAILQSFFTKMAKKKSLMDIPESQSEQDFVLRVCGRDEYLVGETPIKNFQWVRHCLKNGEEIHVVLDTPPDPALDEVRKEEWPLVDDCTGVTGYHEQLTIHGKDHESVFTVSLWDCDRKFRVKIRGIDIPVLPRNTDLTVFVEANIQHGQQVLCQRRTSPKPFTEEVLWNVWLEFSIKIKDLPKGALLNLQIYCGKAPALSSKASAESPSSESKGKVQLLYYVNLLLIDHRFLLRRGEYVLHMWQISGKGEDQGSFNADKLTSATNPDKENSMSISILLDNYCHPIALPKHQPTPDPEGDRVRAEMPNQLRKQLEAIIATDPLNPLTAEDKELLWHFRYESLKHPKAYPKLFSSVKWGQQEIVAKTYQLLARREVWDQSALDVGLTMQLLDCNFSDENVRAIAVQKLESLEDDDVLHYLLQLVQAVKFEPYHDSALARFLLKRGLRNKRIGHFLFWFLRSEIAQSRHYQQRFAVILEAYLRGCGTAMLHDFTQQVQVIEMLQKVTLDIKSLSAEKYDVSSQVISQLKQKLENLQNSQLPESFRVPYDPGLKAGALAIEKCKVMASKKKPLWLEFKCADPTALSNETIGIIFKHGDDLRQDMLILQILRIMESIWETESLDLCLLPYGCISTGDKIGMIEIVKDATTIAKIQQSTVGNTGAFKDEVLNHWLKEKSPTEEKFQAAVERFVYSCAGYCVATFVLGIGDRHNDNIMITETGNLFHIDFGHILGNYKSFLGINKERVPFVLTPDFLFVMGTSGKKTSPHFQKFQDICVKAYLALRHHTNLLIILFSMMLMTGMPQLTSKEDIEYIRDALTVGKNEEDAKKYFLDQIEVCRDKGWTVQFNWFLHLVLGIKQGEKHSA
recorded-metric: IC50

# annotated cases, reported IC50 shown
                                   molecule          result
0  CCc1nc2ccccc2cc1Cn1nc(-c2ccc3nc(NC(C)=O)sc3c2)c2c(N)ncnc21        < 100 nM
1  Cc1ccccc1-c1nc2ccccc2cc1Cn1nc(-c2ccc3cc(N)sc3c2)c2c(N)ncnc21        < 100 nM
2  CC(=O)Nc1nc2ccc(-c3nn(Cc4cc5ccccc5nc4-c4ccccc4F)c4ncnc(N)c34)cc2[nH]1  100 to 1000 nM
3  Nc1ncnc2c1c(-c1cc(O)cc(F)c1)nn2Cc1cc2ccccc2[nH]c1=O       > 1000 nM
4  Nc1nc2ccc(-c3nn(Cc4cc5ccccc5nc4N4CCCC4)c4ncnc(N)c34)cc2s1        < 100 nM

Observed IC50 on p110γ (Homo sapiens (Human)), entry Nc1nc2cc(-c3nn(Cc4cc5ccccc5nc4N4CCCC4)c4ncnc(N)c34)ccc2[nH]1 , equals < 100 nM

Observed IC50 on p110γ (Homo sapiens (Human)), entry CCC(Nc1ncnc2[nH]cnc12)c1cc2ccccc2nc1N1CCCC1 (centres unmarked) , equals > 1000 nM

Observed IC50 on p110γ (Homo sapiens (Human)), entry CC(=O)Nc1nc2ccc(-c3nn(Cc4cc5ccccc5nc4N(C)C)c4ncnc(N)c34)cc2s1 , equals < 100 nM
